Data origin, for the record: patent US9737526B2

# MEASUREMENT_PROTOCOL: Solubilities of constituents in non-aqueous solvents
# Type: physicochemical
# RUN_PARAMETERS: organic solvent or mixture; solvent propylene glycol; read-out: solubility in propylene glycol
Where a name gives a salt, the structure may show the parent alone.
Measured solubility of individual entries
Reply with the number and its unit after it.

>>> result("O=C1NS(=O)(=O)c2ccccc21.[Na] [Saccharin sodium]")
"250 mg/mL"

Next:
### Prompt For the compound shown here, CN1CCc2cccc3c2[C@H]1Cc1ccc(O)c(O)c1-3 [Apomorphine HCl] , give the reported solubility.
### Response 80 mg/mL

====

Measured solubility of individual entries
# MEASUREMENT_PROTOCOL: Solubilities of constituents in non-aqueous solvents
# Assay type: physicochemical
# RUN_PARAMETERS: organic solvent or mixture; solvent ethanol; read-out: solubility in ethanol
Counter-ions that a name gives are not always drawn.
Entry rule: numbers only, all in mg/mL.

>>> measured_number("CN1CCc2cccc3c2[C@H]1Cc1ccc(O)c(O)c1-3 [Apomorphine HCl]")
20

Next:
### Prompt For the compound shown here, O=C1NS(=O)(=O)c2ccccc21.[Na] [Saccharin sodium] , give the reported solubility.
### Response 20
